# TEST_TARGET: human IL4Rα expressed on HEK293T-IL4Rα-STAT6-STAT6LUC-LB2 cells (human, UniProt P24394 26-825)
# ASSAY_OVERVIEW: cell-based or functional assay
Recorded Inhibition on IL4 induced STAT6 phosphorylation (IC50, nM) for the following binders
# number only, unit nM dropped from output

Some binders with known Inhibition on IL4 induced STAT6 phosphorylation (IC50, nM) results, for comparison:
chimeric antibody C2C1A1A1 (antibody, human IgG4 S228P, kappa, V domains shown, Mouse variable domains on human IgG4/kappa; also called Chimeric C2C1A1A1; chC2C1A1A1) VH: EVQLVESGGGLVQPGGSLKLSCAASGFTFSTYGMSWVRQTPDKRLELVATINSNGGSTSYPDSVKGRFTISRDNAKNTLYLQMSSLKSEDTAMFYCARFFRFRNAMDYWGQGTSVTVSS VL: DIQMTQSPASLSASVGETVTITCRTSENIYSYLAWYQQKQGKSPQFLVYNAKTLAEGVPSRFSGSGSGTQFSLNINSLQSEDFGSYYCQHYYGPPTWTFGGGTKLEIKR; 0.27
mouse antibody B8G11F2B7G5E8 (antibody, V domains shown, Mouse hybridoma mAb; also called Mouse B8G11F2B7G5E8; mAb B8G11F2B7G5E8) VH: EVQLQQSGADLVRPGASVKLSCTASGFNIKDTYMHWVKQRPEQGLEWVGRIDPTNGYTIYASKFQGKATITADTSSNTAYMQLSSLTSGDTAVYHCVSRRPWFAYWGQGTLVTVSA VL: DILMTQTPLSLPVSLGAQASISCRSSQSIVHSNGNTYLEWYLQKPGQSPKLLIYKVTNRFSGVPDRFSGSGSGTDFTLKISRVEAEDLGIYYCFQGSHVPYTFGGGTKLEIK; 0.26
mouse antibody C2C1A1A1 (antibody, V domains shown, Mouse hybridoma mAb; also called Mouse C2C1A1A1) VH: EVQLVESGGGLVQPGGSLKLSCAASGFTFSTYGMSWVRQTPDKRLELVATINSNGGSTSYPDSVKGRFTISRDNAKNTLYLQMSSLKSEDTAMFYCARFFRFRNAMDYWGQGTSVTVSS VL: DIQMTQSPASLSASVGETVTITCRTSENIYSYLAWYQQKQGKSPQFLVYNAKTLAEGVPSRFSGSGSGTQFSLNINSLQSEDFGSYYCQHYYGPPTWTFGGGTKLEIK; 0.19

Query binder follows.
Using the record for chimeric antibody B8G11F2B7G5E8 (antibody, human IgG4 S228P, kappa, V domains shown, Mouse variable domains on human IgG4/kappa; also called Chimeric B8G11F2B7G5E8; chB8G11F2B7G5E8) VH: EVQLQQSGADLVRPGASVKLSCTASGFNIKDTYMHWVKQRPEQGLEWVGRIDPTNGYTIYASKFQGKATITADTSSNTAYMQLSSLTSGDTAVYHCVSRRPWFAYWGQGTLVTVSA VL: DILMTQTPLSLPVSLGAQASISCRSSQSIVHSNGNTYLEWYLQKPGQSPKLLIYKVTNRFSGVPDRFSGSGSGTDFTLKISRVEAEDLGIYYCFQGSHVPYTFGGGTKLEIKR , report its Inhibition on IL4 induced STAT6 phosphorylation (IC50, nM).
0.26
